Hey, just so you know, these numbers are from the DeepSol protein solubility set.

- Experiment notes: soluble on expression in E. coli; label from the status in PepcDB or PDB records
Test readout: soluble on expression in E. coli

INSERT INTO measurements (chain, observed_value) VALUES
  ('MGSDKIHHHHHHVQHDQAPEVYSDLIQMVWALFTPSTVNFFSKGLCANAPFIMEMVDFEALKTVEEDVYLNAYNLTDHKMAIFGKDILDYEHFGATLAYPFIYPPAKVDGKLYLEGAAEDAFNFQGLLEHDEGIRTVVVFDAFGNEGYIQDPPNLWQAWGQNLILPLISLTRHDLAFFEHMLDDWNESHPARQDVELIKVTFPIPPEWLPTALDWSRSNLERMFELGYETGKKFVAEKGVRLGATLPPKPTPAKGRGGAAKKDDDAMFGGASIG', 'not soluble'),
  ('MGSDKIHHHHHHMIIDRLFDSVEKKGHVCLGLDTDITYVPEEFCKKFNSIEDAIFNFNKKIIDATLDVVSCYKVQIAYYEAYGLKGLLAYKRTLEYLREKKAIAIADIKRGDIAKTAEMYAKAHFEGDFEADFVTLNPYMGLDGIEPYMPYIEKMEKGLFILLRTSNKGAYDIQYIKTQGGKNVYDEVGEKIYDLGQKATGRSKYSSIGAVVGCTHVEEGVEIRNKFKNMFFLIPGYGAQGGTAKEVSLYLREGNGGVVNSSRGILLAYKKEENGEKIFDECARLAAINMRDEIRKTL', 'not soluble');
